meta.source: ChEMBL document CHEMBL5154740

system: Receptor tyrosine-protein kinase erbB-2 (Homo sapiens) (UniProt P04626)
Sequence (P04626 whole entry): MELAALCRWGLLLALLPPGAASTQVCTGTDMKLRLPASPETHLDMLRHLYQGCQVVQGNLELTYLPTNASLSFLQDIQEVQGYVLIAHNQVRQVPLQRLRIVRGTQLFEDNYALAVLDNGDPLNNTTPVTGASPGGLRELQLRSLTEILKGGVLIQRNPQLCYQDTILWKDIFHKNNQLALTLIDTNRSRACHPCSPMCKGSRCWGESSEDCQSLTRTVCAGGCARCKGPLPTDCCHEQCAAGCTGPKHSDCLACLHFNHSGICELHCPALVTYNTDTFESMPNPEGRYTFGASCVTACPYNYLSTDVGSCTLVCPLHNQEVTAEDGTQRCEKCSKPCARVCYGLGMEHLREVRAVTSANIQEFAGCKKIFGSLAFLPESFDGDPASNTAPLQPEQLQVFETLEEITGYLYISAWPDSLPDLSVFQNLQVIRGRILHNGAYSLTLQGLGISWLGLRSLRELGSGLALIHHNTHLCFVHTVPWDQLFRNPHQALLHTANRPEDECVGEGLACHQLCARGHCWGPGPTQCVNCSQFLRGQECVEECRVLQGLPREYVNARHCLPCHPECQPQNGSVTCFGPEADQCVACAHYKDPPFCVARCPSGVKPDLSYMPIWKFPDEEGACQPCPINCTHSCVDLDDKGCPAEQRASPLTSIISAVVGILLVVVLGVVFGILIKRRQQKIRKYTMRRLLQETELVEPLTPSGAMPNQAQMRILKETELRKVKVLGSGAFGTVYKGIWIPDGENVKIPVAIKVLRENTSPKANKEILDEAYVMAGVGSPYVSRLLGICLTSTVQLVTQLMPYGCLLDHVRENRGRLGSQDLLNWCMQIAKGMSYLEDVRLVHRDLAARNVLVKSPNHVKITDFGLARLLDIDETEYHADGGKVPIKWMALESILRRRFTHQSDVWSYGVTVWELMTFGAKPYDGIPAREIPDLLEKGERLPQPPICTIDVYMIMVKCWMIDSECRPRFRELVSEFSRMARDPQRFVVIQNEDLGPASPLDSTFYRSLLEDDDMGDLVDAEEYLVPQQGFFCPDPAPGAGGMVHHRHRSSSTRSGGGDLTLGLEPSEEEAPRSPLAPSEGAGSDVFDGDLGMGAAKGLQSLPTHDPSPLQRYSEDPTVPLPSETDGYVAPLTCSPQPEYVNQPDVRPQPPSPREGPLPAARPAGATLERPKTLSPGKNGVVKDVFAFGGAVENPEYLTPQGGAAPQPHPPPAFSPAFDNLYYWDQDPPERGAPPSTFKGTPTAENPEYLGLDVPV
protocol.notes: Inhibition of ERBB2 (unknown origin) at 50 nM by Z'LYTE screening method relative to control
readout: inhibition (%)
API: value field is a number in %; no unit string.

Known inhibition results, listed for orientation:
compound	reported
O=c1c2ccccc2[se]n1-c1nc(NC2CCCCC2)c2nc[nH]c2n1	0
O=c1c2ccccc2[se]n1-c1nc(N[C@@H]2C[C@H]3CC[C@@H]2C3)c2nc[nH]c2n1	0
O=C1c2ccccc2CN1c1nc(NC2CCCCC2)c2nc[nH]c2n1	0
CCN(CC)CCCC(C)Nc1nc(-n2[se]c3ccccc3c2=O)nc2[nH]cnc12 (configuration not stated)	1
C[C@@H]1[C@H]2C[C@@H](C[C@H]1Nc1nc(-n3[se]c4ccccc4c3=O)nc3[nH]cnc13)C2(C)C	0
O=c1c2ccccc2[se]n1-c1nc(N[C@H]2CCOC2)c2nc[nH]c2n1	0
O=C1c2ccccc2CN1c1nc(N[C@H]2CC[Se]C2)c2nc[nH]c2n1	1
O=c1c2ccccc2[se]n1-c1nc(N[C@H]2CC[Se]C2)c2nc[nH]c2n1	0
CCCNc1nc(-n2[se]c3ccccc3c2=O)nc2[nH]cnc12	0
O=C1c2ccccc2CN1c1nc(NC2CCCC2)c2nc[nH]c2n1	0

Query block: Item O=c1c2ccccc2[se]n1-c1nc(Nc2ccccc2)c2nc[nH]c2n1 has what recorded inhibition?
Result block: 0

Query block: # query: inhibition of entry CCN(CC)CCCC(C)Nc1nc(N2Cc3ccccc3C2=O)nc2[nH]cnc12 (configuration not stated)
Result block: 0
